measurement_protocol: Intrinsic clearance in human liver microsomes at 1 uM after 30 mins by LC-MSD method
Type: ADME, Microsome
test_conditions: read-out: CLH
quantity: microsomal CLint at 1 µM (µL/min/mg)

>>> measured_number("O=C(NCc1ccccc1)c1ccccc1C(=O)N1CCCCC1")
89
>>> measured_number("N#C[C@@H]1CCCN1C(=O)c1cccc2c1C(=O)N(Cc1ccccc1)C2")
13
>>> measured_number("N#C[C@@H]1CCCN1C(=O)c1ccccc1C(=O)NCc1ccccc1")
44

A. O=C(NCc1ccccc1)c1ccccc1C(=O)N1CCCC1
B. N#C[C@@H]1CS[C@H]2C[C@@H](NC(=O)OCc3ccccc3)C(=O)N12
Identify the entry with the smaller microsomal CLint at 1 µM: A or B . Return value: the label identifying the chosen record.
B
(B: 10 µL/min/mg, A: 25 µL/min/mg)

###

measurement_protocol: Intrinsic clearance in rat liver microsomes at 1 uM after 30 mins by LC-MSD method
Type: ADME, Microsome
test_conditions: read-out: CLH
quantity: microsomal CLint at 1 µM (µL/min/mg)

Example entries begin here.
>>> measured_number("N#C[C@@H]1CCCN1C(=O)c1cccc2c1C(=O)N(Cc1ccccc1)C2")
39
>>> measured_number("O=C(NCc1ccccc1)c1ccccc1C(=O)N1CCCC1")
83
>>> measured_number("O=C(c1cccc2c1C(=O)N(Cc1ccccc1)C2)N1CCCC1")
62

I. O=C(NCc1ccccc1)c1ccccc1C(=O)N1CCCCC1
II. N#C[C@@H]1CCCN1C(=O)c1ccccc1C(=O)NCc1ccccc1
Of the two listed items, I and II , which carries the larger microsomal CLint at 1 µM figure? Return value: the label identifying the chosen record.
I
(I: 311 µL/min/mg, II: 37 µL/min/mg)

###

measurement_protocol: Half life in human liver microsomes at 1 uM after 30 mins by LC-MSD method
Type: ADME, Microsome
quantity: half-life at 1 µM (h)

Example entries begin here.
>>> measured_number("N#C[C@@H]1CS[C@H]2C[C@@H](NC(=O)OCc3ccccc3)C(=O)N12")
2.23
>>> measured_number("O=C(c1cccc2c1C(=O)N(Cc1ccccc1)C2)N1CCCC1")
1.63

A. N#C[C@@H]1CCCN1C(=O)c1cccc2c1C(=O)N(Cc1ccccc1)C2
B. O=C(NCc1ccccc1)c1ccccc1C(=O)N1CCCCC1
C. O=C(NCc1ccccc1)c1ccccc1C(=O)N1CCCC1
D. N#C[C@@H]1CCCN1C(=O)c1ccccc1C(=O)NCc1ccccc1
Put the entries in order of half-life at 1 µM, starting with the largest number. Please respond by ranking the labels in the order requested.
A, C, D, B

###

measurement_protocol: Half life in rat liver microsomes at 1 uM after 30 mins by LC-MSD method
Assay type: ADME, Microsome
quantity: half-life at 1 µM (min)

Example entries begin here.
>>> measured_number("O=C(c1cccc2c1C(=O)N(Cc1ccccc1)C2)N1CCCC1")
23
>>> measured_number("N#C[C@@H]1CCCN1C(=O)c1ccccc1C(=O)NCc1ccccc1")
38
>>> measured_number("N#C[C@@H]1CCCN1C(=O)c1cccc2c1C(=O)N(Cc1ccccc1)C2")
35

a. O=C(NCc1ccccc1)c1ccccc1C(=O)N1CCCC1
b. O=C(NCc1ccccc1)c1ccccc1C(=O)N1CCCCC1
Identify the entry with the smaller half-life at 1 µM: a or b . Return value: the label identifying the chosen record.
b
